test.protocol: Phase solubility study with cyclodextrins (β-CDs, HP-β-CDs) in galega water, spectrophotometric titration
Format: physicochemical
recorded.conditions: 25 °C, water, thermodynamic from solid
assay.endpoint: solubility thermodynamic at 60 min (µg/mL)
The answer is to be given in µg/mL; state only the numeric part.

Give the measured solubility thermodynamic at 60 min for Oc1ccc(C=Cc2cc(O)cc(O)c2)cc1
40
